# Ratio IC50 per entry
Species: Homo sapiens
Assay: Selectivity index, ratio of IC50 for recombinant human MAO-A expressed in baculovirus infected insect cells to IC50 for recombinant human MAO-B expressed in baculovirus infected insect cells
PARAMETER: Ratio IC50

structure_smiles_string=Cc1ccc2oc(-c3ccccc3Br)cc2c1 parameter="Ratio IC50" prefix_operator== reported_measurement=55
structure_smiles_string=Brc1cccc(-c2cc3ccccc3o2)c1 parameter="Ratio IC50" prefix_operator== reported_measurement=85.5
structure_smiles_string=Brc1ccc(-c2cc3ccccc3o2)cc1 parameter="Ratio IC50" prefix_operator=> reported_measurement=294
structure_smiles_string=Cc1cccc2cc(-c3ccc(Br)cc3)oc12 parameter="Ratio IC50" prefix_operator== reported_measurement=95.2
structure_smiles_string=Cc1ccc2oc(-c3ccccc3)cc2c1 parameter="Ratio IC50" prefix_operator=> reported_measurement=114
structure_smiles_string=Cc1cccc2cc(-c3cccc(Br)c3)oc12 parameter="Ratio IC50" prefix_operator=> reported_measurement=25.2
structure_smiles_string=Brc1ccccc1-c1cc2ccccc2o1 parameter="Ratio IC50" prefix_operator== reported_measurement=7.2
structure_smiles_string=Cc1cccc2cc(-c3ccccc3Br)oc12 parameter="Ratio IC50" prefix_operator== reported_measurement=11.5
structure_smiles_string=Cc1ccc2oc(-c3cccc(Br)c3)cc2c1 parameter="Ratio IC50" prefix_operator=> reported_measurement=400
structure_smiles_string=Cc1cccc2cc(-c3ccccc3)oc12 parameter="Ratio IC50" prefix_operator== reported_measurement=9.3

# credit: ChEMBL document CHEMBL4261557
